Tested on: SARS-CoV-2
Assay: Antiviral activity against SARS-CoV-2 B.1.1.7 (Alpha) infected in African green monkey VeroE6/TMPRSS2 cells at 1 MOI assessed as reduction in plaque formation measured after 48 hrs by measuring luciferase activity assay
Type: functional, organism-based
Conditions: Severe acute respiratory syndrome coronavirus 2, B.1.1.7 (Alpha), VeroE6/TMPRSS2, 48 h
pEC50: −log10 of the molar value.
property.name: pEC50

>>> df
                              record_smiles  measurement
0  [2H][C@](C(=O)N[C@@H](C)c1ccc(F)cc1)(c1cccnc1)N(C(=O)C(C)=O)c1ccc2c(c1)oc1ccccc12         7.69

----------
Target: Replicase polyprotein 1ab (Severe acute respiratory syndrome coronavirus 2, UniProt P0DTD1)
Assay: Inhibition of 2019-nCoV-2 3CLp using fluorescent substrate by FRET assay
pIC50: −log10 of the molar value.
property.name: pIC50

                              record_smiles  measurement
0  CC(C)(C)NC(=O)[C@@H](c1cccnc1)N(C(=O)c1cnco1)c1ccc(-c2ccccc2)cc1         5.30
1  CC(C)(C)NC(=O)[C@@H](c1cnccn1)N(C(=O)c1ccco1)c1ccc(-c2ccccc2)cc1         6.55
2  CC(C)(C)c1ccc(N(C(=O)c2ccco2)[C@@H](C(=O)NC2CCCCC2)c2cccnc2)cc1         5.62
3  CC(C)(C)c1ccc(N(C(=O)c2ccco2)[C@@H](C(=O)NC2CCCC2)c2cccnc2)cc1         5.60
4  CC(C)(C)NC(=O)[C@@H](c1cccnc1)N(C(=O)c1c[nH]cn1)c1ccc(C(C)(C)C)cc1         6.02
5  C[C@H](NC(=O)[C@@H](c1cccnc1)N(C(=O)c1ccco1)c1ccc(-n2cccc2)cc1)c1ccccc1         6.03
6  CC(C)(C)c1ccc(N(C(=O)c2ccco2)[C@@H](C(=O)NC2CC2)c2cccnc2)cc1         5.41
7  CCn1nncc1Cn1c(=O)[nH]/c(=N\c2cc3cn(C)nc3cc2Cl)n(Cc2cc(F)c(F)cc2F)c1=O         6.91

----------
Assay: Half life in ICR mouse measured at 150 mg/kg, po upto 24 hrs by LC-MS/MS analysis
Format: ADME, organism-based
Conditions: in vivo
property.name: half-life (h)

>>> df
                              record_smiles  property_name  measurement
0  [2H][C@](C(=O)N[C@@H](C)c1ccc(F)cc1)(c1cccnc1)N(C(=O)C(C)=O)c1ccc2c(c1)oc1ccccc12      half-life         1.42

----------
Biological target: von Hippel-Lindau disease tumor suppressor-SARS-Cov-2 polyprotein (Severe acute respiratory syndrome coronavirus 2, UniProt P0DTD1+P40337)
Sequence (P40337 whole entry, other chains not shown): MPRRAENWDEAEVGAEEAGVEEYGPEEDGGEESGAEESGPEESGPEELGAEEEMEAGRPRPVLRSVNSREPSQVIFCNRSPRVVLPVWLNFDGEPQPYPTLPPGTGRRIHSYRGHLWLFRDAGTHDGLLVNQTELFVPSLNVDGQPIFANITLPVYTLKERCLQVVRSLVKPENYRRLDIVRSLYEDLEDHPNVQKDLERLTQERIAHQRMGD
Assay: PROTAC activity at SARS-CoV-2 Main protease/VHL (unknown origin) in SARS-CoV-2 infected african green monkey Vero cell assessed as inhibition of virus-mediated cytopathic effect measured after 72 hrs
pEC50: −log10 of the molar value.
property.name: pEC50

compound	property.name	measurement
Cc1ncsc1-c1ccc(CNC(=O)[C@@H]2C[C@@H](O)CN2C(=O)[C@@H](NC(=O)CCOCCOCCOCCn2nnc(COc3ccc(OC(=O)N[C@@H](CC(C)C)C(=O)N[C@H](C=O)C[C@@H]4CCNC4=O)cc3)c2C)C(C)(C)C)cc1	pEC50	7.10
Cc1ncsc1-c1ccc(CNC(=O)[C@@H]2C[C@@H](O)CN2C(=O)[C@@H](NC(=O)CCOCCOCCOCCn2nnc(COC3CCC(OC(=O)N[C@@H](CC(C)C)C(=O)N[C@H](C=O)C[C@@H]4CCNC4=O)CC3)c2C)C(C)(C)C)cc1 (some centres not stated)	pEC50	6.46
Cc1ncsc1-c1ccc(CNC(=O)[C@@H]2C[C@@H](O)CC2C(=O)[C@@H](NC(=O)CCC(=O)NCCOCCn2nnc(COC(=O)N[C@@H](CC(C)C)C(=O)N[C@@H](C[C@@H]3CCNC3=O)C(O)S(=O)(=O)O)c2C)C(C)(C)C)cc1 (some centres not stated)	pEC50	4.99
Cc1ncsc1-c1ccc(CNC(=O)[C@@H]2C[C@@H](O)CN2C(=O)[C@@H](NC(=O)CCC(=O)NCCOCCn2nnc(COc3ccc(OC(=O)N[C@@H](CC(C)C)C(=O)N[C@H](C=O)C[C@@H]4CCNC4=O)cc3)c2C)C(C)(C)C)cc1	pEC50	6.92
Cc1ncsc1-c1ccc(CNC(=O)[C@@H]2C[C@@H](O)CN2C(=O)[C@@H](NC(=O)CCOCCOCCOCCn2nnc(COc3ccc(OC(=O)N[C@@H](CC(C)C)C(=O)N[C@@H](C[C@@H]4CCNC4=O)C(O)S(=O)(=O)O)cc3)c2C)C(C)(C)C)cc1 (some centres not stated)	pEC50	6.68
Cc1ncsc1-c1ccc(CNC(=O)[C@@H]2C[C@@H](O)CN2C(=O)[C@@H](NC(=O)CCOCCOCCOCCn2nnc(COC(=O)N[C@@H](CC(C)C)C(=O)N[C@H](C=O)C[C@@H]3CCNC3=O)c2C)C(C)(C)C)cc1	pEC50	6.02
Cc1ncsc1-c1ccc(CNC(=O)[C@@H]2C[C@@H](O)CN2C(=O)[C@@H](NC(=O)CCOCCOCCOCCn2nnc(COc3ccc(OC(=O)N[C@@H](CC(C)C)C(=O)N[C@H](CO)C[C@@H]4CCNC4=O)cc3)c2C)C(C)(C)C)cc1	pEC50	6.12
